- tested system: UniProt:O75469
- Sequence (O75469 whole entry): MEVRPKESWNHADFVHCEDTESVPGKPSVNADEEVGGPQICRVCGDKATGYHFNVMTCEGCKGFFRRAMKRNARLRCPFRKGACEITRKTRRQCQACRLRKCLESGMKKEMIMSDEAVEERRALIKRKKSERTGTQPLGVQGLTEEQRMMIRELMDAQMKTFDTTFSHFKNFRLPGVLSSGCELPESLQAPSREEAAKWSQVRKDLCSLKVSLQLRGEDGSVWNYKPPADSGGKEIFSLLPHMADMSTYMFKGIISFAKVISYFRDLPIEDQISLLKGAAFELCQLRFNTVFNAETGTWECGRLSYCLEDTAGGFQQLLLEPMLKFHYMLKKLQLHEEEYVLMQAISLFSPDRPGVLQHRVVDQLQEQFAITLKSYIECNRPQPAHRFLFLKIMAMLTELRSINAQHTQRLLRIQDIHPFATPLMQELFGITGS
- assay explanation: Activation of PXR (unknown origin)
Here the recorded log10(EC50) is given for each entry.
property measured: log10(EC50) (log10 of the value in nM)

> print(dat)
                                    compound  property.measured  value.reported
 1  C[C@]1(c2ccc(F)cc2)CN(C(=O)NCc2ccccc2)C[C@H]1c1ccc(C(O)(C(F)(F)F)C(F)(F)F)cc1 (racemic)        log10(EC50)            2.68
 2  C[C@]1(c2ccc(F)cc2)CN(C(=O)C2CCN(C(=O)CC#N)CC2)C[C@H]1c1ccc(C(O)(C(F)(F)F)C(F)(F)F)cc1        log10(EC50)            2.69
 3  C[C@]1(c2ccc(F)cc2)CN(C(=O)C2CCN(S(C)(=O)=O)CC2)C[C@H]1c1ccc(C(O)(C(F)(F)F)C(F)(F)F)cc1        log10(EC50)            2.18
 4  C[C@]1(c2ccccc2)CNC[C@H]1c1ccc(C(O)(C(F)(F)F)C(F)(F)F)cc1 (racemic)        log10(EC50)            3.10
 5  CC(=O)N1CCC(C(=O)N2C[C@@H](c3ccc(C(O)(C(F)(F)F)C(F)(F)F)cc3)[C@@](C)(c3ccc(F)cc3)C2)CC1        log10(EC50)            3.03
 6  C[C@]1(c2ccccc2)CN(CC(N)=O)C[C@H]1c1ccc(C(O)(C(F)(F)F)C(F)(F)F)cc1 (racemic)        log10(EC50)            2.44
 7  C[C@]1(c2ccccc2)CN(S(C)(=O)=O)C[C@H]1c1ccc(C(O)(C(F)(F)F)C(F)(F)F)cc1 (racemic)        log10(EC50)            2.41
 8  C[C@]1(c2ccc(F)cc2)CN(C(=O)NCc2ccccc2)C[C@H]1c1ccc(C(O)(C(F)(F)F)C(F)(F)F)cc1        log10(EC50)            2.75
 9  CCS(=O)(=O)c1ccc(CNC(=O)N2C[C@@H](c3ccc(C(O)(C(F)(F)F)C(F)(F)F)cc3)[C@@](C)(c3ccc(F)cc3)C2)cc1        log10(EC50)            0.70
10  C[C@]1(c2ccc(F)cc2)CN(C(=O)C2CCN(C(=O)C(N)=O)CC2)C[C@H]1c1ccc(C(O)(C(F)(F)F)C(F)(F)F)cc1        log10(EC50)            3.00
11  COc1ccc(CNC(=O)N2C[C@@H](c3ccc(C(O)(C(F)(F)F)C(F)(F)F)cc3)[C@@](C)(c3ccc(F)cc3)C2)cc1        log10(EC50)            2.28
12  CC(=O)N1C[C@@H](c2ccc(C(O)(C(F)(F)F)C(F)(F)F)cc2)[C@@](C)(c2ccccc2)C1 (racemic)        log10(EC50)            2.56
13  C[C@@]1(c2ccc(C(O)(C(F)(F)F)C(F)(F)F)cc2)CN(C(=O)NCc2ccccc2)C[C@@H]1c1ccccc1 (racemic)        log10(EC50)            1.78

---

- tested system: Nuclear receptor ROR-gamma (Homo sapiens, UniProt P51449)
- Sequence (P51449 whole entry): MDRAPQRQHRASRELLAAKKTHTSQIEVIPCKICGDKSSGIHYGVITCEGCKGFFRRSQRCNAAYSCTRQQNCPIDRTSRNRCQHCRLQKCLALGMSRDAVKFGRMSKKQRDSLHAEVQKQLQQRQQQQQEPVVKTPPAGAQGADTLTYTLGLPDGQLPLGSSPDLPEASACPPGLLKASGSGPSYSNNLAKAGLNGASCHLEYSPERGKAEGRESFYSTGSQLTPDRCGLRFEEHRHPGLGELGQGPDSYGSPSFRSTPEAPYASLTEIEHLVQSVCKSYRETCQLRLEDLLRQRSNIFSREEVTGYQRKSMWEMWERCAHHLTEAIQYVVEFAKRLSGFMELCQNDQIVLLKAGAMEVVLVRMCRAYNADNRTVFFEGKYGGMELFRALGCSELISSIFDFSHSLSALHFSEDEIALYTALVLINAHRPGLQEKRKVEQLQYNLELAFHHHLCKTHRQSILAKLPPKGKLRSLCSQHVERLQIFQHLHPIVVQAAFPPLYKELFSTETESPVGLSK
- assay explanation: Inverse agonist activity at RORgammat (unknown origin) expressed in Jurkat cells by reporter assay
property measured: EC50 (µM)

> print(dat)
                                   molecule  property.measured  unit.text  value.reported
1  C[C@]1(c2ccccc2)CNC[C@H]1c1ccc(C(O)(C(F)(F)F)C(F)(F)F)cc1 (racemic)               EC50         µM            7.91
2  C[C@]1(c2ccc(F)cc2)CN(C(=O)NCc2ccc(C#N)cc2)C[C@H]1c1ccc(C(O)(C(F)(F)F)C(F)(F)F)cc1               EC50         µM           0.074
